# SYSTEM_NAME: Monoglyceride lipase (Mus musculus)
# Sequence (O35678 whole entry): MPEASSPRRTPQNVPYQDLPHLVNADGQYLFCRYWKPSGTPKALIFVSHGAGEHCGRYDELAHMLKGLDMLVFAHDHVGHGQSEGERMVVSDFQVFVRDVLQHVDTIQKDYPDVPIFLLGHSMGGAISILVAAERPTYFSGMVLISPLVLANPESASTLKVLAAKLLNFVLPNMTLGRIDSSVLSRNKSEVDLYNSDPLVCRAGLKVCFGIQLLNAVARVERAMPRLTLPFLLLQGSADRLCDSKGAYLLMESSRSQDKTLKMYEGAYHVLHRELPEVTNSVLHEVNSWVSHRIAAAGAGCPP
pIC50: −log10 of the molar value.
QUANTITY_MEASURED: pIC50

QUERY: Which pIC50 reading was recorded for the compound Cc1ccc2cc(C(=O)N3CCCC34CCN(C(=O)OC(C(F)(F)F)C(F)(F)F)CC4)sc2c1 ?
RESULT: > 7.00
